- TEST TARGET: T1, Biotinylated human soluble TWEAK (amino acids 99-249 of SEQ ID NO: 60) (human, UniProt O43508 99-249, biotinylated (sites not given))
- T1 construct: Immobilised on the streptavidin sensor in the Biacore half-life assay; also called Human TWEAK; soluble human TWEAK
- T1 sequence: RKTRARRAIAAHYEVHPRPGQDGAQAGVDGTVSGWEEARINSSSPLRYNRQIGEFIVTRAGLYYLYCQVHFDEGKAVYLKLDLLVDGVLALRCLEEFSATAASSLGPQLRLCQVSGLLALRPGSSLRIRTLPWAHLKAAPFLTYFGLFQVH
- EXPERIMENT NOTES: Biacore SPR, biotinylated human soluble TWEAK on SA sensor, antibody as analyte, 25 C
Record yes (1) whenever t/2 diss is at 100 min or higher; record no (0) when lower.

Use the examples below as a reference point.
Antibody 28 (antibody, V domains shown, Humanized variant of antibody 305; also called humanized 305 variant 305-LC2 / 305-HC7) VH: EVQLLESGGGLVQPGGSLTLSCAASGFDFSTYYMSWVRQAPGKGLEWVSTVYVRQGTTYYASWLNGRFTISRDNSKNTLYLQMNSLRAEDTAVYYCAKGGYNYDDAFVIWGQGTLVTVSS VL: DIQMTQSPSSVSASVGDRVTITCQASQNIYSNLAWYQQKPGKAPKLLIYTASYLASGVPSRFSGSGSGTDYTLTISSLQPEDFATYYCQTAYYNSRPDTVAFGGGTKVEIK :: no (0)
Antibody 30 (antibody, V domains shown, Humanized variant of antibody 305; also called humanized 305 variant 305-LC1 / 305-HC10) VH: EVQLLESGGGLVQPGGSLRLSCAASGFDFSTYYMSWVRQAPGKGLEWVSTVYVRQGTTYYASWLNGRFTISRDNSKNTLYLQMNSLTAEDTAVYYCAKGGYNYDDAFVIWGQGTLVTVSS VL: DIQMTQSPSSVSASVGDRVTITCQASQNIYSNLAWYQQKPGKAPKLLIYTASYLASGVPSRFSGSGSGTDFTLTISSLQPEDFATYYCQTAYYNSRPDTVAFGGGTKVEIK :: no (0)
Antibody 31 (antibody, V domains shown, Humanized variant of antibody 305; also called humanized 305 variant 305-LC4 / 305-HC7) VH: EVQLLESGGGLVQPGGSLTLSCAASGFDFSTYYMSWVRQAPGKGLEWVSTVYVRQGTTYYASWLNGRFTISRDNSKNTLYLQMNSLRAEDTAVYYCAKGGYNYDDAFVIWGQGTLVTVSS VL: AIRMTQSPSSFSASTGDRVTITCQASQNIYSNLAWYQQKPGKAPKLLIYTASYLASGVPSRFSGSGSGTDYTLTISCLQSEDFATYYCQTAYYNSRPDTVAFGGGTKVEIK :: yes (1)
Antibody 27 (antibody, V domains shown, also called humanized 305 variant 305-LC2 / 305-HC4) VH: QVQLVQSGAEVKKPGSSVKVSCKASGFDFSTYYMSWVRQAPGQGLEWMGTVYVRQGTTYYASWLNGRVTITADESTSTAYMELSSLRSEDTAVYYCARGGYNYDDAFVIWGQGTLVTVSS VL: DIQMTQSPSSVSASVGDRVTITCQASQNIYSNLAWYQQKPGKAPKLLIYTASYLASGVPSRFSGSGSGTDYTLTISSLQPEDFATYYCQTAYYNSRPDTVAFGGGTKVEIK :: yes (1)
Antibody 33 (antibody, V domains shown, Humanized variant of antibody 305; also called humanized 305 variant 305-LC4 / 305-HC4) VH: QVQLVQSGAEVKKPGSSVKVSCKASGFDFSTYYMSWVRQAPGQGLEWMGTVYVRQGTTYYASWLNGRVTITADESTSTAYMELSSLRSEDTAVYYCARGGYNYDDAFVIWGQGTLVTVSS VL: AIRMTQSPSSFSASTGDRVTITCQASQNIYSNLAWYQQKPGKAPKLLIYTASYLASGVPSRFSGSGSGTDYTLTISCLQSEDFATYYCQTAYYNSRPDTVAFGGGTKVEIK :: yes (1)
Antibody 34 (antibody, V domains shown, Humanized variant of antibody 305; also called humanized 305 variant 305-LC4 / 305-HC2) VH: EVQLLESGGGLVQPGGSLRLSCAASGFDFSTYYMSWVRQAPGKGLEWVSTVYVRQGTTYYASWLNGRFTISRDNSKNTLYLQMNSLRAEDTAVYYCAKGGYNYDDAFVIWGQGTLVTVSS VL: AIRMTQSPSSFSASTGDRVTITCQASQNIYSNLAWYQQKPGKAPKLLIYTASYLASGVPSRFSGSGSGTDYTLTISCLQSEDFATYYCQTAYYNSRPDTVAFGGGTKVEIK :: yes (1)

Answer whether t/2 diss of Antibody 32 (antibody, V domains shown, Humanized variant of antibody 305; also called humanized 305 variant 305-LC6 / 305-HC8) VH: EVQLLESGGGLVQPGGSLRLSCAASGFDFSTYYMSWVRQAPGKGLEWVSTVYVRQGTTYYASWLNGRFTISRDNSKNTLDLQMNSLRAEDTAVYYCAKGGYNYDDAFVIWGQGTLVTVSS VL: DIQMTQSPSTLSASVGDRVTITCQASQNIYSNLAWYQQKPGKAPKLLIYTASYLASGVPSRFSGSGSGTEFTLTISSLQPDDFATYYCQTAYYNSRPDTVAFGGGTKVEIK is greater than or equal to 100 min.
no (0)

Answer whether t/2 diss of Antibody 29 (antibody, V domains shown, Humanized variant of antibody 305; also called humanized 305 variant 305-LC2 / 305-HC8) VH: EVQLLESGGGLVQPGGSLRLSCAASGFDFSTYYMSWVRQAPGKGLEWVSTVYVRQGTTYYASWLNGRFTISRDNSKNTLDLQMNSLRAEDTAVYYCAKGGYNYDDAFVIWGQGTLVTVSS VL: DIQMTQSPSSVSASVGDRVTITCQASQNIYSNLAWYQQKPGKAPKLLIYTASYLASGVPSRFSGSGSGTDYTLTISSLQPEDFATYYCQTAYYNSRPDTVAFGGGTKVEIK is greater than or equal to 100 min.
yes (1)
